Data provenance: PubChem BioAssay

- experiment: SU-DIPG-VI glioma cell viability, MIPE4.0 library, CellTiter-Glo luminescence, qHTS (AID 1347066);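 also: cells exposed to compound for 48 hours before readout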
- stated conditions: CellTiter-Glo ATP luminescence
Inconclusive results are not listed. Active and inactive are the calls of the source. The limit is not given here; nearly all actives have AC50 up to about 30 µM. Where a SMILES comes first, the peptide text is derived from it. [ ]: non-standard residue; d: D form. The star is where a group is joined. Sta = CC(C)C[C@H](N)[C@@H](O)CC(=O)O; Isovaleryl = CC(C)CC(=O)*
Labels: Y = active, N = inactive

- molecule: "C[C@H]1C[C@H]2[C@@H]3CCC4=CC(=O)C=C[C@]4(C)[C@H]3C(=O)C[C@]2(C)[C@@]1(O)C(=O)CO"
  category label: "N"
- molecule: "COc1c2occc2cc2ccc(=O)oc12"
  category label: "N"
- molecule: "CC(C)CC(=O)N[C@H](C(=O)N[C@H](C(=O)N[C@@H](CC(C)C)[C@@H](O)CC(=O)N[C@@H](C)C(=O)N[C@@H](CC(C)C)[C@@H](O)CC(=O)O)C(C)C)C(C)C (Isovaleryl-VV[Sta]A[Sta]-OH)"
  category label: "N"
- molecule: "N#Cc1c(N(CC(=O)O)CC(=O)O)sc(C(=O)O)c1CC(=O)O"
  category label: "N"
- molecule: "Nc1ccn(C[C@@H](CO)OCP(=O)(O)O)c(=O)n1"
  category label: "N"
- molecule: "O=C(CS(=O)Cc1ccco1)NC/C=C\\COc1cc(CN2CCCCC2)ccn1 (stereo not drawn)"
  category label: "N"
- molecule: "CCCCc1oc2ccc(NS(C)(=O)=O)cc2c1C(=O)c1ccc(OCCCN(CCCC)CCCC)cc1"
  category label: "Y"
- molecule: "CC1=C(/C=C/C(C)=C/C=C/C(C)=C/C(=O)Nc2ccc(O)cc2)C(C)(C)CCC1"
  category label: "Y"

---

- experiment: stimulators of nuclear beta-catenin in C2C12, primary screen, imaging, WNT3A-conditioned medium, mouse C2C12, NPC library (AID 1117326); also: reference of the scale not given here
- stated conditions: at 10 µM, stronger effect = higher value

- molecule: "CS(=O)(=O)CCNCc1ccc(-c2ccc3ncnc(Nc4ccc(OCc5cccc(F)c5)c(Cl)c4)c3c2)o1"
  nuclear beta-catenin stimulation / %: 31.2
- molecule: "O=c1[nH]c(=O)n([C@H]2C[C@H](O)[C@@H](CO)O2)cc1Br"
  nuclear beta-catenin stimulation / %: 0.6
- molecule: "NC(CO)(CO)CO"
  nuclear beta-catenin stimulation / %: 1.8
- molecule: "CCC(CC)(CC(=O)Nc1cccc(/C=C/c2nc(C3CCC3)cs2)c1)C(=O)O"
  nuclear beta-catenin stimulation / %: 0
- molecule: "Cc1c(C)n(CCN(C)C)c2ccc(C(=O)OCCN(C)C)cc12"
  nuclear beta-catenin stimulation / %: 1.1
- molecule: "NC(=O)c1cn(Cc2c(F)cccc2F)nn1"
  nuclear beta-catenin stimulation / %: 0.5
- molecule: "O=C1OC2(c3ccc(O)cc3Oc3cc(O)ccc32)c2ccccc21"
  nuclear beta-catenin stimulation / %: -0.4
- molecule: "CCC(C)(CN(C)C)OC(=O)c1ccccc1 (stereo unspecified)"
  nuclear beta-catenin stimulation / %: -2.1
- molecule: "Cn1c(=O)c2c(ncn2CC2OCCO2)n(C)c1=O"
  nuclear beta-catenin stimulation / %: 2.7
- molecule: "CCCCCCOC(=O)NC(=N)c1ccc(NCc2nc3cc(C(=O)N(CCC(=O)OCC)c4ccccn4)ccc3n2C)cc1"
  nuclear beta-catenin stimulation / %: 2.7
- molecule: "O=C(O)CCC(=O)OC[C@@H](NC(=O)C(Cl)Cl)[C@H](O)c1ccc([N+](=O)[O-])cc1"
  nuclear beta-catenin stimulation / %: 2.4
